Where do these numbers come from? They come from paper PMC12747932.

Assayed target: WDR5 Y191F variant (residues 24–334) (human, UniProt P61964 24-334, Y191F)
Assay overview: ITC; peptide (approximately 1 mM) titrated into protein (0.05 mM), 20°C, Buffer E (20 mM Tris-HCl, 200 mM NaCl, pH 7.5), single binding site model, duplicate
Cond: both partners purified

Binder: GSARARPSQ (also called wild-type Kif2A; source: synthetic peptide (GenScript)) [Kif2A 114–122 peptide]
Kd [nM]: 960
